system: organophosphorous agent resistant two-spotted spider mites; experiment: Effect on Two-spotted Spider Mite (spray on kidney bean leaves); assay type: in vivo; details: 125 ppm, water dispersible powder of Formulation Example 1 sprayed, 17 female adults, 25° C., 65% humidity, 3 days
reported_metric: rate of killed adults

Example entries and their recorded answers appear below.
CCOC(=O)c1cc(C(F)(F)F)ccc1OC1CC2CCC(C1)N2c1ccc(C(F)(F)F)cn1 (centres unmarked) [2-193] : 100%
CCc1cc(Cl)ccc1OC1CCN(c2ccc(C(F)(F)F)cn2)CC1 [1-54] : 100%
FC(F)(F)c1ccc(N2CCC(Oc3ccc(Cl)cc3)CC2)nc1 [1-10] : 100%
FC(F)(F)c1ccc(N2CC3CCC(C2)C3Oc2ccc(C(F)(F)F)cc2OCC2CCOC2)nc1 (centres unmarked) [5-205] : 100%
CCC(C)OC(=O)c1cc(C(F)(F)F)ccc1OC1CC2CCC(C1)N2c1ccc(C(F)(F)F)cn1 (centres unmarked) [2-208] : 100%
CC(O)COc1cc(C(F)(F)F)ccc1OC1C2CCC1CN(c1ccc(C(F)(F)F)cn1)C2 (centres unmarked) [5-127] : 100%

Entry CC(C)OC(=O)c1cc(C(F)(F)F)ccc1OC1CC2CCC(C1)N2c1ccc(C(F)(F)F)cn1 (centres unmarked) [2-196] has what rate of killed adults?
100%

Which rate of killed adults value is on record for CCC(C)C(O)c1cc(C(F)(F)F)ccc1OC1CC2CCC(C1)N2c1ccc(C(F)(F)F)cn1 (centres unmarked) [2-194] ?
100%

----------
System: organophosphorous agent resistant two-spotted spider mites
Assay: Effect on Two-spotted Spider Mite (spray on kidney bean leaves)
Assay type: in vivo
Conditions: 125 ppm, water dispersible powder of Formulation Example 1 sprayed, 17 female adults, 25° C., 65% humidity, 3 days
Description: Effect on Two-spotted Spider Mite 17 female adults of organophosphorous agent resistant two-spotted spider mites were inoculated onto the first leaves of kidney beans seeded onto 3.5 inch pots and germinated 7 to 10 days before, onto which each of liquid agents, diluted with water so as to adjust the respective concentration of the chemical compounds to 125 ppm according to the formulation of the water dispersible powder shown in the aforementioned Formulation Example 1, was sprayed. […]
reported_metric: rate of killed adults (%)
Kindly answer with a numeric value in %, unit omitted.

Example entries begin here.
CCCCc1cc(C(F)(F)F)ccc1O[C@H]1C[C@H]2CC[C@@H](C1)N2c1ccc(C(F)(F)F)cn1 : 100
N#Cc1ccc(O[C@@H]2[C@@H]3CC[C@H]2CN(c2ccc(C(F)(F)F)cn2)C3)c(OCC2CC2)c1 : 100
CSCOc1cc(C(F)(F)F)ccc1OC1CC2CCC(C1)N2c1ccc(C(F)(F)F)cn1 (centres unmarked) : 100

# lookup: rate of killed adults of COCOc1cc(C(F)(F)F)ccc1OC1CCN(c2ccc(C(F)(F)F)cn2)CC1
100

I am curious: what rate of killed adults value has been reported for CC(C)(C)COc1cc(C(F)(F)F)ccc1OC1CC2CCC(C1)N2c1ccc(C(F)(F)F)cn1 (centres unmarked) ?
100

Quick check: rate of killed adults of Fc1cc(C(F)(F)F)ccc1OC1CCN(c2ccc(C(F)(F)F)cn2)CC1 ?
100

Field request: rate of killed adults | item: CCC(Cl)c1cc(C(F)(F)F)ccc1OC1CCN(c2ccc(C(F)(F)F)cn2)CC1 (centres unmarked)
100

Name the recorded rate of killed adults for CCCNc1cc(C(F)(F)F)ccc1OC1CC2CCC(C1)N2c1ccc(C(F)(F)F)cn1 (centres unmarked) .
100

Name the recorded rate of killed adults for CCC(C)=NOc1cc(C(F)(F)F)ccc1OC1CC2CCC(C1)N2c1ccc(C(F)(F)F)cn1 (mixture of isomers) .
100

Recorded rate of killed adults of FC(F)(F)c1ccc(N2C3CCC2CC(Oc2ccc(C(F)(F)F)cc2ON=C2CCCC2)C3)nc1 (centres unmarked) , please.
100

# get_value(readout='rate of killed adults', item= FC(F)COc1cc(C(F)(F)F)ccc1OC1CC2CCC(C1)N2c1ccc(C(F)(F)F)cn1 (centres unmarked) )
100

Item CCCOc1cc(C(F)(F)F)cc(Cl)c1OC1CC2CCC(C1)N2c1ccc(C(F)(F)F)cn1 (centres unmarked) has what recorded rate of killed adults?
100

Record request: rate of killed adults value, item CCCCCOc1cc(C(F)(F)F)ccc1OC1CC2CCC(C1)N2c1ccc(C(F)(F)F)cn1 (centres unmarked)
100

What value of measured rate of killed adults is listed for FC(F)(F)c1ccc(N2CC3CCC(C2)C3Oc2ccc(C(F)(F)F)cc2C2C=CCO2)nc1 (centres unmarked) ?
100

What does the record list as rate of killed adults for CCC1COC(c2cc(C(F)(F)F)ccc2O[C@@H]2[C@@H]3CC[C@H]2CN(c2ccc(C(F)(F)F)cn2)C3)N1 (some centres unmarked) ?
100

Form field: reported rate of killed adults of CC=CCOc1cc(C(F)(F)F)ccc1OC1CC2CCC(C1)N2c1ccc(C(F)(F)F)cn1 (mixture of isomers)
100

So what does the record say about rate of killed adults for Cc1cnc(-c2cc(C(F)(F)F)ccc2OC2CC3CCC(C2)N3c2ccc(C(F)(F)F)cn2)o1 (centres unmarked) ?
100

Which rate of killed adults value belongs to N#Cc1cc(C(F)(F)F)ccc1O[C@@H]1[C@@H]2CC[C@H]1CN(c1ccc(C(F)(F)F)cn1)C2 ?
100

Entry CC(O)COc1cc(C(F)(F)F)ccc1OC1CC2CCC(C1)N2c1ccc(C(F)(F)F)cn1 (centres unmarked) has what rate of killed adults?
100

State the recorded rate of killed adults for this entry: COCOC(C)c1cc(C(F)(F)F)ccc1O[C@@H]1[C@@H]2CC[C@H]1CN(c1ccc(C(F)(F)F)cn1)C2 (some centres unmarked)
100

Give the measured rate of killed adults of CCC(OC)OCc1cc(C(F)(F)F)ccc1OC1C2CCC1CN(c1ccc(C(F)(F)F)cn1)C2 (centres unmarked) .
100

Request the reported rate of killed adults associated with COC(C)COc1cc(C(F)(F)F)ccc1OC1C2CCC1CN(c1ccc(C(F)(F)F)cn1)C2 (centres unmarked)
100

Requested read-out: rate of killed adults. Entry: CON=Cc1cc(C(F)(F)F)ccc1OC1CC2CCC(C1)N2c1ccc(C(F)(F)F)cn1 (centres unmarked)
100

Suppose we examine the compound FC(F)(F)c1ccc(N2CC3CCC(C2)C3Oc2ccc(C(F)(F)F)cc2OCC2CCCO2)nc1 (centres unmarked) [5-214] ; what rate of killed adults value has been reported?
100

Entry CC(Cl)COc1cc(C(F)(F)F)ccc1OC1C2CCC1CN(c1ccc(C(F)(F)F)cn1)C2 (centres unmarked) : reported rate of killed adults = ?
100

Could you share which rate of killed adults value was measured for COCOCc1cc(C(F)(F)F)ccc1OC1CCN(c2ccc(C(F)(F)F)cn2)CC1C (mixture of isomers) ?
100

# rate of killed adults lookup, item C=CC(C)OC(=O)c1cc(C(F)(F)F)ccc1OC1CC2CCC(C1)[N+]2([O-])c1ccc(C(F)(F)F)cn1 (centres unmarked)
100

Could you share which rate of killed adults value was measured for FC(F)(F)c1ccc(N2CCC(Oc3ccc(Br)cc3)CC2)nc1 ?
100

Which measured rate of killed adults value corresponds to COc1cc(C(F)(F)F)ccc1OC1CC2CCC(C1)N2c1ccc(C(F)(F)F)cn1 (centres unmarked) ?
100
